# Tested on: human red blood cells
# run_description: Hemolytic activity determination
# Format: cell-based
# condition_context: 2% (v/v) hRBCs, peptide 12.5-200 μg/mL, 37 °C, 1 h, absorbance 540 nm; 1% Triton X-100 = 100%; three independent experiments
Where a SMILES comes first, the peptide text is derived from it.
Reported HC10: the concentration of the peptide that causes 10% hemolysis of human red blood cells values are given for each entry in this list.
parameter: HC10: the concentration of the peptide that causes 10% hemolysis of human red blood cells

compound	result
CC[C@H](C)[C@H](N)C(=O)N[C@@H](Cc1c[nH]c2ccccc12)C(=O)N[C@@H](CC(N)=O)C(=O)N[C@@H](CO)C(=O)N[C@@H](CCC(=O)O)C(=O)N1CCC[C@H]1C(=O)N[C@H](C(=O)N[C@@H](CCCCN)C(=O)N[C@@H](C)C(=O)N[C@@H](CC(C)C)C(=O)N[C@@H](CCCCN)C(=O)N[C@@H](CO)C(=O)N[C@@H](CCC(N)=O)C(=O)N[C@@H](C)C(N)=O)C(C)C [Smp43(13-26)] (H-IWNSEPVKALKSQA-NH2)	> 200 µg/mL
CC[C@H](C)[C@H](NC(=O)[C@H](CCCCN)NC(=O)[C@H](CCC(=O)O)NC(=O)[C@H](C)NC(=O)[C@@H](NC(=O)[C@H](Cc1ccccc1)NC(=O)[C@H](CC(N)=O)NC(=O)[C@H](CCCCN)NC(=O)[C@H](C)NC(=O)[C@H](C)NC(=O)[C@H](CC(N)=O)NC(=O)[C@H](CC(C)C)NC(=O)[C@H](C)NC(=O)[C@@H](N)CCC(N)=O)C(C)C)C(N)=O [Smp43(25-38)] (H-QALNAAKNFVAEKI-NH2)	> 200 µg/mL
CC[C@H](C)[C@H](NC(=O)[C@H](CCCCN)NC(=O)CNC(=O)[C@H](C)NC(=O)[C@@H](N)[C@@H](C)O)C(=O)N[C@@H](Cc1c[nH]c2ccccc12)C(=O)N[C@@H](CC(N)=O)C(=O)N[C@@H](CO)C(=O)N[C@@H](CCC(=O)O)C(=O)N1CCC[C@H]1C(=O)N[C@H](C(=O)N[C@@H](CCCCN)C(=O)N[C@@H](C)C(=O)N[C@@H](CC(C)C)C(N)=O)C(C)C [Smp43(9-22)] (H-TAGKIWNSEPVKAL-NH2)	> 200 µg/mL
CC[C@H](C)[C@H](NC(=O)[C@H](CCCCN)NC(=O)[C@H](CCC(=O)O)NC(=O)[C@H](C)NC(=O)[C@@H](NC(=O)[C@H](Cc1ccccc1)NC(=O)[C@H](CC(N)=O)NC(=O)[C@H](CCCCN)NC(=O)[C@H](C)NC(=O)[C@H](C)NC(=O)[C@H](CC(N)=O)NC(=O)[C@@H](N)CC(C)C)C(C)C)C(=O)NCC(=O)N[C@@H](C)C(N)=O [Smp43(27-40)] (H-LNAAKNFVAEKIGA-NH2)	> 200 µg/mL
CC[C@H](C)[C@H](NC(=O)[C@H](CCCCN)NC(=O)CNC(=O)[C@H](C)NC(=O)[C@@H](NC(=O)[C@H](CCCCN)NC(=O)[C@H](CCCCN)NC(=O)[C@@H](NC(=O)[C@H](Cc1c[nH]c2ccccc12)NC(=O)[C@H](CC(=O)O)NC(=O)[C@H](Cc1c[nH]c2ccccc12)NC(=O)[C@@H](NC(=O)CN)C(C)C)[C@@H](C)CC)[C@@H](C)O)C(=O)N[C@@H](Cc1c[nH]c2ccccc12)C(N)=O [Smp43(1-14)] (H-GVWDWIKKTAGKIW-NH2)	75 µg/mL
